Recorded values, source patent US20240101646A1.

tgt: SARS-CoV-2 RBD (SARS-CoV-2, UniProt P0DTC2 319-541)
pKd: −log10 of the molar value.
pKd listing for selected binders.

| binder | pKd |
| --- | --- |
| 53182-3 (antibody, V domains shown) VH: EVHLVESGGGLVQPGGSLRLSCAASGFTVSSNYMSWVRQAPGKGLEWVSVIYSGGNTYYADSVKGRFTISRDNSKNTLYLQMNSLRAEDTAVYYCARDRRIIGYYFGMDVWGRGTTVTVSS VL: QSALTQPASVSGSPGQSITISCTGTSSYVGSFDLVSWYQQHPGKAPKLMIYEVSKRPSGVSNRFSGSKSGNTASLTISGLQAEDEADYYCCPYADTWVFGGGTKLTVL | 8.08 |
| 5317-2 (antibody, V domains shown) VH: QVQLVQSGAEVKKPGSSVKVSCKVSGGTFSSYTIIWVRQAPGQGLEWMGRVIPVVHITHYAQRFRGRVTISADKSTSTAYMELSSLRSEDTAVYYCARGLWFGDSETVWFDPWGQGTLVTVSS VL: DIQMTQSPSSLSASVGDRVTITCRASQNITYYLNWYQQKPGKAPNLLIYTASSLQSGVPSRFIGSGSGTDFTLTISSLQPEDFATYCCQQSYSTPPTFGQGTKVEIR | 8.71 |
| 53182-1 (antibody, V domains shown) VH: EVQLVESGGGLIQPGGSLRLSCTASGITVSTNYMTWVRQAPGKGLEWVSIIYSGGSTYYADSVKGRFTISRDNSKNTLYLQMNSLRADDTAVYYCTRGGWPSGDTFDIWGLGTMVTVSS VL: DIQLTQSPSFLSASVGDRVTITCRASQGISSYLAWYQQKPGKAPKLLIYGASTLQSGVPSRFSGSGSGTEFTLTISSLQPEDFATYYCQQLNSYPEITFGPGTKVDIK | 8.55 |
| 5317-6 (antibody, V domains shown) VH: QLQLQESGPGLVKPSETLSLTCTVSGASISSSSYYWGWIRQPPGKGLEWIGTMYYRGSTDYNPSLKSRVTISVDTSKNQFSLRLSSVTAADTAVYYCARRVPGDYYCLDVWGKGTTVTVSS VL: DIQLTQSPSSLSASVGDRVTVTCRASQSISDYLNWYQQKPGKAPKLLIYAASSLQTGVPPRFSGSGSGTDFTLTISSLQPEDFATYYCQQSFSARVPTFGGGTKVESK | 8.78 |
| 5317-5 (antibody, V domains shown) VH: QVQLVQSGAEVKKPGSSVKVSCKASGGTFSSYPITWVRQAPGQGFEWMGKIIPILGIADYAQSFQGRVTITADKSTTTAYMELSSLRSEDTAVYYCAREKGYSSSSSATYYLDFWGQGTLVTVSS VL: QSVLTQPPSVSGAPGQRVTISCTGSNSNIGAGYDVHWYQQLPGTAPRLLIYRNSNRPSGVPDRFSGSKSGTAASLAISGLQAEDEADYYCQSYDSSLTALVFGGGTKLTVL | 10.08 |
